Test system: Plasmodium falciparum
Test: Confirmatory screen in NF54 nanoGlo assay, in single point, at 2uM, 72h
Assay type: functional, Erythrocyte
Conditions: timepoint 72 hour
In all, about 4,800 compounds went through this assay and about 420 (8.8%) showed an effect of 50% or more. For the sample, strong results were picked, then their nearest neighbours and some compounds at random.
Quick reference: % Inhibition of the listed items.
endpoint: % Inhibition (%)

[
  {
    "compound": "Cc1nn(C)c(NC(=O)c2ccc(C(C)(C)C)cc2)c1C1=CCCCC1",
    "endpoint": "% Inhibition",
    "unitSymbol": "%",
    "measValue": 15
  },
  {
    "compound": "Cc1cc(=O)[nH]c(-n2nc(C3CC3)cc2NC(=O)C(c2ccccc2)c2ccccc2)n1",
    "endpoint": "% Inhibition",
    "unitSymbol": "%",
    "measValue": 91
  },
  {
    "compound": "Cc1nc(CC(=O)Nc2cc(C3CC3)nn2-c2ccccc2)cs1",
    "endpoint": "% Inhibition",
    "unitSymbol": "%",
    "measValue": 1
  },
  {
    "compound": "CC(C)(C)c1ccc(C(=O)N[C@H]2CCCC[C@@H]2NC(=O)c2ccc(C(C)(C)C)cc2)cc1",
    "endpoint": "% Inhibition",
    "unitSymbol": "%",
    "measValue": -5
  },
  {
    "compound": "Cc1ccc(S(=O)(=O)N2CC[C@H](CC(=O)NCc3ccccc3)C2)cc1C",
    "endpoint": "% Inhibition",
    "unitSymbol": "%",
    "measValue": -16
  },
  {
    "compound": "Cc1cc(F)ccc1NC(=O)Cn1nc(C2CC2)c2c(C(F)F)cc(=O)[nH]c21",
    "endpoint": "% Inhibition",
    "unitSymbol": "%",
    "measValue": -4
  },
  {
    "compound": "CC(C)C(=O)Nc1ccc(-c2cc(-c3ccc(NC(=O)C(C)C)cc3)nc(-c3ccncc3)n2)cc1",
    "endpoint": "% Inhibition",
    "unitSymbol": "%",
    "measValue": 56
  },
  {
    "compound": "C[C@H]1CCCN(c2nc3ncn(CC(=O)Nc4ccccc4C(F)(F)F)c(=O)c3s2)C1",
    "endpoint": "% Inhibition",
    "unitSymbol": "%",
    "measValue": -15
  },
  {
    "compound": "Oc1ccc(-c2nnc(-c3ccc(O)cc3)nn2)cc1",
    "endpoint": "% Inhibition",
    "unitSymbol": "%",
    "measValue": 51
  },
  {
    "compound": "COc1cc(C)cc(C)c1S(=O)(=O)N(C)Cc1nnc[nH]1",
    "endpoint": "% Inhibition",
    "unitSymbol": "%",
    "measValue": 4
  },
  {
    "compound": "CC(C)(C)OC(=O)N1C2CCC1CC(CC(=O)NC1CCCC1)C2 (stereo unspecified)",
    "endpoint": "% Inhibition",
    "unitSymbol": "%",
    "measValue": 8
  },
  {
    "compound": "CC(C)C(=O)NCC(=O)Nc1ccc(C(F)(F)F)cc1",
    "endpoint": "% Inhibition",
    "unitSymbol": "%",
    "measValue": -15
  },
  {
    "compound": "CCNC(=O)c1nc(-c2ccncc2)cs1",
    "endpoint": "% Inhibition",
    "unitSymbol": "%",
    "measValue": -21
  },
  {
    "compound": "Oc1ccc(-c2ncc3n2CCCC3)cc1",
    "endpoint": "% Inhibition",
    "unitSymbol": "%",
    "measValue": 4
  },
  {
    "compound": "CC(C)n1nccc1N1C(=O)N[C@@H](CC(F)(F)F)C1=O",
    "endpoint": "% Inhibition",
    "unitSymbol": "%",
    "measValue": 0
  },
  {
    "compound": "Cc1cc(=O)[nH]c(-n2nc(C3CC3)cc2NC(=O)c2ccc(C(C)(C)C)cc2)n1",
    "endpoint": "% Inhibition",
    "unitSymbol": "%",
    "measValue": 57
  },
  {
    "compound": "CC(C)c1cc(=O)[nH]c(-n2nc(C3CC3)cc2NC(=O)c2ccc(F)cc2)n1",
    "endpoint": "% Inhibition",
    "unitSymbol": "%",
    "measValue": 93
  },
  {
    "compound": "Cc1c(C(C)C)c(=O)n(-c2ccc(S(=O)(=O)N3CCN(c4nc5ccccc5nc4-c4ccccc4)CC3)cc2)n1C",
    "endpoint": "% Inhibition",
    "unitSymbol": "%",
    "measValue": -20
  },
  {
    "compound": "Cn1ccnc1[C@@H](NC(=O)c1ccnn1C(F)F)C(C)(C)CO",
    "endpoint": "% Inhibition",
    "unitSymbol": "%",
    "measValue": -2
  },
  {
    "compound": "Cc1ccc(C(=O)Nc2ccc(N3CCN(c4c(F)c(F)c(F)c(F)c4F)CC3)cc2)c(Cl)c1",
    "endpoint": "% Inhibition",
    "unitSymbol": "%",
    "measValue": 10
  },
  {
    "compound": "Cc1cc(S(=O)(=O)NC(=O)CCC(C)C)c(C)o1",
    "endpoint": "% Inhibition",
    "unitSymbol": "%",
    "measValue": -7
  }
]
